This collection of values is drawn from paper doi:10.1101/2022.12.11.519956v1.

ASSAY_SYSTEM: SauUSI (Staphylococcus aureus, UniProt A0A0H2XK17)
Sequence (A0A0H2XK17 1-953): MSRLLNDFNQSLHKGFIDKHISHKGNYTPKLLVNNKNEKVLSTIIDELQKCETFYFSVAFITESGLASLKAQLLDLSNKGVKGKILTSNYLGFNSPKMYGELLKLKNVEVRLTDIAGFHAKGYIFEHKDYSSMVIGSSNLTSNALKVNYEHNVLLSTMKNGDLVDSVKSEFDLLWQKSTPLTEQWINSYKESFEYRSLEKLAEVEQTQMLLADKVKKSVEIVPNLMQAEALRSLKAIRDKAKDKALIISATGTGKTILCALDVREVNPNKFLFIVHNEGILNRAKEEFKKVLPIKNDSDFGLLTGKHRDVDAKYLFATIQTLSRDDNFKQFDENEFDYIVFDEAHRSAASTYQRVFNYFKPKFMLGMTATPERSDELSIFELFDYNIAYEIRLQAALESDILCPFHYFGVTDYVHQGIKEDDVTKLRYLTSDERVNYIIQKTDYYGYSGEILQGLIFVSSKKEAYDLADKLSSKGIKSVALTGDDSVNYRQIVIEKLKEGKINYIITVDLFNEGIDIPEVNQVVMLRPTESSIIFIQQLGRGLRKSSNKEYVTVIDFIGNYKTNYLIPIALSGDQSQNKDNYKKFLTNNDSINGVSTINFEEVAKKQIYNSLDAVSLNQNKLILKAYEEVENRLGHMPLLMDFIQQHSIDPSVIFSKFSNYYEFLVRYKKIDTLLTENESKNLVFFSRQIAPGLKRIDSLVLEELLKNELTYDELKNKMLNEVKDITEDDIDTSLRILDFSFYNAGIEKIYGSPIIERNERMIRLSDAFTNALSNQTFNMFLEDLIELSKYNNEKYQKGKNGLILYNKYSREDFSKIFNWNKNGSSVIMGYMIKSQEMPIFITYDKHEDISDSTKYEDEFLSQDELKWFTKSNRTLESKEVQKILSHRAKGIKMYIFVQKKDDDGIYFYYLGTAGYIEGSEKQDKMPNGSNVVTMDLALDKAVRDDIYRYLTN
OBSERVED_PROPERTY: IC50

query: Any idea what IC50 was measured for Nc1ncnc2c1ncn2[C@@H]1O[C@H](COP(=O)(O)OP(=O)(O)OP(=O)(O)O)[C@@H](O)[C@H]1O [ATP] ?
result: ~760 µM
